# testedOn: T1, Human CD19-his protein (human, UniProt P15391 20-291)
# T1 construct: bought protein; also called recombinant human CD19-His; CD19 full-length protein; not shown: His tag
# T1 sequence (looked up): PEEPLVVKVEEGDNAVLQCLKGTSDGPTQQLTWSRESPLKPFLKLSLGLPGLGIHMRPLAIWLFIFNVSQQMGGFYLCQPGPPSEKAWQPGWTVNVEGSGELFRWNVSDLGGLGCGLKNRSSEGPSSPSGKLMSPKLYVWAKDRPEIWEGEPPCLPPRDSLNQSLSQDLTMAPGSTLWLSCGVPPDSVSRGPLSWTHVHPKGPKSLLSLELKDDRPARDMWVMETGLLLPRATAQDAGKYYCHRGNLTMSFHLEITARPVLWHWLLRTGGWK
# method: ELISA, coated human CD19-His
# Procedure: Human CD19-his protein (purchased from ACROBiosystems, catalog number: CD9-H52H2) was diluted with PBS to a final concentration of 4 μg/mL, and then added to a 96-well ELISA plate at 100 μl/well. […] The OD450 nm values were read by an ELISA microplate reader (Multimode Plate Reader, EnSight, purchased from Perkin Elmer).
propertyName: OD450 at 0.0001 nM (OD450)
Numeric answer only, unit OD450 assumed.

Some binders with known OD450 at 0.0001 nM results, for comparison:
binder	OD450 at 0.0001 nM [OD450]
F3.121.4-L1H1 (antibody, mouse IgG1, kappa, V domains shown, humanized antibody of F3.121.4, VL1+VH1, murine IgG1 constant regions) VH: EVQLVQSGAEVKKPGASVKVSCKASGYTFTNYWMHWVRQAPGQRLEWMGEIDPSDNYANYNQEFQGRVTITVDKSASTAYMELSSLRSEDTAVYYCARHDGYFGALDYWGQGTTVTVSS VL: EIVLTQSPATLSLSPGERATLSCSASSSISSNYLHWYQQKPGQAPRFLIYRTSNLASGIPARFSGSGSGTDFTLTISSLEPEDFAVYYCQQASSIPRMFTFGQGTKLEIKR	0.12
F3.121.4-L1H2 (antibody, mouse IgG1, kappa, V domains shown, humanized antibody of F3.121.4, VL1+VH2, murine IgG1 constant regions) VH: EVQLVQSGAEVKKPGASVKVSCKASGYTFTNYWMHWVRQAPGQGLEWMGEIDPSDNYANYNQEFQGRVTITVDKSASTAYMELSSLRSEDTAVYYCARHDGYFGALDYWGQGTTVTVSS VL: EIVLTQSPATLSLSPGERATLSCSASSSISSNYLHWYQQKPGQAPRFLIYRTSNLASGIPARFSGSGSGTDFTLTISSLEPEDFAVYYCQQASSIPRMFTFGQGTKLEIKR	0.1

Looking for the measured OD450 at 0.0001 nM of F3.121.4-L3H2 (antibody, mouse IgG1, kappa, V domains shown, humanized antibody of F3.121.4, VL3+VH2, murine IgG1 constant regions) VH: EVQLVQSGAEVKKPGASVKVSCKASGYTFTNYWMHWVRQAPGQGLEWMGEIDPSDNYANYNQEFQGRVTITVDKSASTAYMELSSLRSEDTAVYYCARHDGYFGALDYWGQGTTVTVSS VL: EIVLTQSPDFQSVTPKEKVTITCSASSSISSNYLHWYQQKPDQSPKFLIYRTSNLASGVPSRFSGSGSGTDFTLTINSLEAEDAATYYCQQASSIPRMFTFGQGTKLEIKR , can you help?
0.1
